- Protocol summary: Cytotoxicity against human A549 cells
- Assay type: cell-based
Readout name: CC50 (µM)

CC(C)(C)OC(=O)N1CCN(C(=S)Nc2cc(C(F)(F)F)cc(C(F)(F)F)c2)CC1 : 109
CC1CN(C(=O)CC2CCCCC2)CCN1C(=S)Nc1ccc(Cl)cc1 (stereo not given) : 200
C[C@@H]1CN(C(=O)CC(C)(C)C)CCN1C(=S)Nc1cc(C(F)(F)F)cc(C(F)(F)F)c1 : 162
CC(C)(C)OC(=O)N1CCN(C(=S)Nc2cc(C(F)(F)F)cc(C(F)(F)F)c2)C(c2ccccc2)C1 (stereo not given) : 127
CC1CN(C(=O)OC(C)(C)C)CCN1C(=S)Nc1cc(C(F)(F)F)cc(C(F)(F)F)c1 (stereo not given) : 112
CC1CN(C(=O)CC(C)(C)C)CCN1C(=S)Nc1cc(C(F)(F)F)cc(C(F)(F)F)c1 (racemic) : 73.2
CC1CN(C(=O)Cc2ccccc2)CCN1C(=S)Nc1cc(C(F)(F)F)cc(C(F)(F)F)c1 (stereo not given) : 130
C[C@H]1CN(C(=O)CC(C)(C)C)CCN1C(=S)Nc1cc(C(F)(F)F)cc(C(F)(F)F)c1 : 73.5
CC1CN(C(=O)CC2CCCCC2)CCN1C(=S)Nc1cc(C(F)(F)F)cc(C(F)(F)F)c1 (stereo not given) : 82
O=C(CC1CCCCC1)N1CCN(C(=S)Nc2cc(C(F)(F)F)cc(C(F)(F)F)c2)C(c2ccccc2)C1 (stereo not given) : 125

###

- Tested on: RAW264.7
- Protocol summary: Antiinflammatory activity against mouse RAW264.7 cells assessed as reduction in LPS-induced NO production at 1 to 10 uM incubated for 24 hrs by Griess assay relative to control
- Format: functional
- Measurement conditions: dose microM 1-10
Listing: inhibition (INH) of selected compounds
Readout name: inhibition (INH) (%)

CC1CN(C(=O)OC(C)(C)C)CCN1C(=S)Nc1cc(C(F)(F)F)cc(C(F)(F)F)c1 (stereo unspecified) : 40
CC1CN(C(=O)CC(C)(C)C)CCN1C(=S)Nc1cc(C(F)(F)F)cc(C(F)(F)F)c1 (racemic) : 40
CC1CN(C(=O)CC2CCCCC2)CCN1C(=S)Nc1cc(C(F)(F)F)cc(C(F)(F)F)c1 (stereo unspecified) : 40

###

- Test system: RAW264.7
- Protocol summary: Antiinflammatory activity against mouse RAW264.7 cells assessed as reduction in LPS-induced NO production at 1 to 10 uM incubated for 24 hrs by Griess assay relative to control
- Format: functional
- Measurement conditions: dose microM 1-10
Readout name: inhibition (INH)

O=C(CC1CCCCC1)N1CCN(C(=S)Nc2cc(C(F)(F)F)cc(C(F)(F)F)c2)C(c2ccccc2)C1 (stereo not drawn) : >=80%
CC(C)(C)OC(=O)N1CCN(C(=S)Nc2cc(C(F)(F)F)cc(C(F)(F)F)c2)C(c2ccccc2)C1 (stereo not drawn) : >=80%
CC(C)(C)CC(=O)N1CCN(C(=S)Nc2cc(C(F)(F)F)cc(C(F)(F)F)c2)C(c2ccccc2)C1 (stereo not drawn) : >=80%
